# SYSTEM_UNDER_TEST: HIF1A
# PROTOCOL: HeLa, 100 nM transfected, 24 h, mean of 3
# STUDY_CONDITIONS: ASO
Bases are written 5' to 3'; sugars and linkages follow in the same order, as letters with counts (s phosphorothioate, o phosphodiester; PS: all linkages phosphorothioate). C may stand for cytosine or 5-methylcytosine; the collection does not tell. l = locked nucleic acid (LNA); d = 2'-deoxy (DNA)
REPORTED_ENDPOINT: caspase activation (% of PBS control)
Please respond with just the number, no unit label.

The reported caspase activation (% of PBS control) of the sequence GTTACTGCCTTCTTAC (sugars ldldldddddddlddl, PS) was 220

Quick note, caspase activation (% of PBS control) for TGGCAAGCATCCTGTA (sugars ldldlddddddllddl, PS) landed at 219

// caspase activation (% of PBS control) value for TGGCAAGCATCCTGTA (sugars ldldlddddddddddl, PS) : 204

For GTTACTGCCTTCTTAC (sugars lllllddddddldldl, PS) the sequence record lists caspase activation (% of PBS control) as 467

Just so you know, measured caspase activation (% of PBS control) for GCAAGCATCCTGT (sugars l2 d10 l1, PS) came out at 279

What the record says about TGGCAAGCATCCTGTA (sugars l1 d1 l1 d12 l1, PS) : caspase activation (% of PBS control) is 180

caspase activation (% of PBS control) measured on GTTACTGCCTTCTTAC (sugars ldlddddddddlddll, PS) = 130

GTTACTGCCTTCTTAC (sugars llddlddddddddldl, PS) yielded caspase activation (% of PBS control) of 222

Record GTTACTGCCTTCTTAC (sugars ldllddddddddlldl, PS) , field caspase activation (% of PBS control): 192

Query GTTACTGCCTTCTTAC (sugars ldlldddddddlddll, PS) yields caspase activation (% of PBS control) of 191

get_value(item= GTTACTGCCTTCTTAC (sugars l1 d1 l1 d9 l4, PS) , readout=caspase activation (% of PBS control)) returns 147

The sequence listed as TGGCAAGCATCCTGTA (sugars ldddlddddddlddll, PS) has a reported caspase activation (% of PBS control) of 221

Lab note: GTTACTGCCTTCTTAC (sugars l3 d9 l4, PS) gave caspase activation (% of PBS control) of 165

Summary for this sequence, TGGCAAGCATCCTGTA (sugars lddlddddddddlddl, PS) : caspase activation (% of PBS control) is 312

caspase activation (% of PBS control) measured on GTTACTGCCTTCTTAC (sugars ldlddddddddldlll, PS) = 155

Record GTTACTGCCTTCTTAC (sugars lldllddddddldlll, PS) . Reported caspase activation (% of PBS control): 278

caspase activation (% of PBS control) reading for GTTACTGCCTTCTTAC (sugars lldddddddddldldl, PS) : 144

Memo: TGGCAAGCATCCTGTA (sugars l4 d9 l3, PS) , reported caspase activation (% of PBS control): 412

// GTTACTGCCTTCTTAC (sugars l3 d8 l2 d1 l2, PS) : caspase activation (% of PBS control) value = 243

The reported caspase activation (% of PBS control) of the sequence GTTACTGCCTTCTTAC (sugars lddlddddddddlldl, PS) was 177

The reported value for TGGCAAGCATCCT (sugars lldlddddddldl, PS) in terms of caspase activation (% of PBS control) is 369

// recorded caspase activation (% of PBS control) for TACTGCCTTCTTA (sugars l3 d8 l2, PS) : 317

For record TGGCAAGCATCCTGTA (sugars l3 d8 l5, PS) the listed caspase activation (% of PBS control) is 476

response.value for CAAGCATCCTGTA (sugars l1 d10 l2, PS) (field: caspase activation (% of PBS control)) = 111

caspase activation (% of PBS control) in this record for GTTACTGCCTTCTTAC (sugars ldlddddddddddldl, PS) : 119

response.value for TGGCAAGCATCCTGTA (sugars l2 d1 l2 d8 l3, PS) (field: caspase activation (% of PBS control)) = 407

Query GTTACTGCCTTCTTAC (sugars l3 d10 l1 d1 l1, PS) yields caspase activation (% of PBS control) of 161

Memo: TGGCAAGCATCCT (sugars l4 d6 l1 d1 l1, PS) , reported caspase activation (% of PBS control): 480

Lab book: caspase activation (% of PBS control) of TGGCAAGCATCCTGTA (sugars l1 d12 l1 d1 l1, PS) noted as 150

// caspase activation (% of PBS control) value for TACTGCCTTCTTA (sugars l1 d1 l1 d9 l1, PS) : 193

The recorded caspase activation (% of PBS control) for TGGCAAGCATCCTGTA (sugars l1 d10 l3 d1 l1, PS) is 381

Sample TGGCAAGCATCCTGTA (sugars l3 d8 l2 d1 l2, PS) ; caspase activation (% of PBS control) observed: 414

Measured caspase activation (% of PBS control), GTTACTGCCTTCTTAC (sugars llldldddddddldll, PS) : 274

Query TGGCAAGCATCCTGTA (sugars lllllddddddldldl, PS) yields caspase activation (% of PBS control) of 373

Value of measured caspase activation (% of PBS control) for the entry TGGCAAGCATCCTGTA (sugars l1 d2 l1 d11 l1, PS) : 178

Just so you know, measured caspase activation (% of PBS control) for TGGCAAGCATCCTGTA (sugars ldlldddddddllldl, PS) came out at 438

For record TGGCAAGCATCCTGTA (sugars ldddlddddddllddl, PS) the listed caspase activation (% of PBS control) is 246

// sample TGGCAAGCATCCTGTA (sugars l3 d10 l3, PS) , its caspase activation (% of PBS control) was 273

caspase activation (% of PBS control) in this record for TGGCAAGCATCCTGTA (sugars ldldlddddddldlll, PS) : 309

Recorded caspase activation (% of PBS control) (sequence GTTACTGCCTTCTTAC (sugars l5 d6 l2 d2 l1, PS) ): 492

According to the records, this sequence CAAGCATCCTGTA (sugars l2 d8 l1 d1 l1, PS) displays caspase activation (% of PBS control) of 175

According to the records, this sequence TGGCAAGCATCCTGTA (sugars ldlddddddddldlll, PS) displays caspase activation (% of PBS control) of 195

Sure, the documented caspase activation (% of PBS control) for GTTACTGCCTTCTTAC (sugars lldldddddddllddl, PS) is 196

# caspase activation (% of PBS control) of GTTACTGCCTTCTTAC (sugars lddllddddddlddll, PS) = 218
